test system: Syrian golden hamster; assay: Antidyslipidemic activity in high fat diet fed dyslipidemic golden Syrian hamster model assessed as change in plasma HDL to cholesterol ratio at 50 mg/kg, po administered once daily from day 4 to day 10 measured on day 10 after 2 hrs of last dose relative to baseline; type: functional, Mesocricetus auratus
recordedMetric: Activity (%)

- chemSmiles: "C=C(C)[C@@H]1CC[C@]2(C)CC[C@]3(C)[C@H](CC[C@@H]4[C@@]5(C)CC[C@H](OC(=O)c6cccnc6)C(C)(C)[C@@H]5CC[C@]43C)[C@@H]12"
  unitTag: "%"
  recordedResult: 57
- chemSmiles: "C=C(C)[C@@H]1CC[C@]2(C)CC[C@]3(C)[C@H](CC[C@@H]4[C@@]5(C)CC[C@H](OC(=O)c6ccc7ccccc7n6)C(C)(C)[C@@H]5CC[C@]43C)[C@@H]12"
  unitTag: "%"
  recordedResult: -5
- chemSmiles: "C=C(C)[C@@H]1CC[C@]2(C)CC[C@]3(C)[C@H](CC[C@@H]4[C@@]5(C)CC[C@H](OC(=O)Cc6ccc(OC)cc6)C(C)(C)[C@@H]5CC[C@]43C)[C@@H]12"
  unitTag: "%"
  recordedResult: 24
- chemSmiles: "C=C(C)[C@@H]1CC[C@]2(C)CC[C@]3(C)[C@H](CC[C@@H]4[C@@]5(C)CC[C@H](OC(=O)c6ccc([N+](=O)[O-])cc6)C(C)(C)[C@@H]5CC[C@]43C)[C@@H]12"
  unitTag: "%"
  recordedResult: 4
- chemSmiles: "C=C(C)[C@@H]1CC[C@]2(C)CC[C@]3(C)[C@H](CC[C@@H]4[C@@]5(C)CC[C@H](OC(=O)c6ccc(Cl)cc6)C(C)(C)[C@@H]5CC[C@]43C)[C@@H]12"
  unitTag: "%"
  recordedResult: 14

====

system: Syrian golden hamster; assay: Antidyslipidemic activity in high fat diet fed dyslipidemic golden Syrian hamster model assessed as change in plasma […] level at 50 mg/kg, po administered once daily from day 4 to day 10 measured on day 10 after 2 hrs of last dose relative to baseline; type: functional, Mesocricetus auratus
recordedMetric: Activity (%)

- chemSmiles: "C=C(C)[C@@H]1CC[C@]2(C)CC[C@]3(C)[C@H](CC[C@@H]4[C@@]5(C)CC[C@H](OC(=O)c6ccc7ccccc7n6)C(C)(C)[C@@H]5CC[C@]43C)[C@@H]12"
  recordedResult: -8
- chemSmiles: "C=C(C)[C@@H]1CC[C@]2(C)CC[C@]3(C)[C@H](CC[C@@H]4[C@@]5(C)CC[C@H](OC(=O)c6ccc([N+](=O)[O-])cc6)C(C)(C)[C@@H]5CC[C@]43C)[C@@H]12"
  recordedResult: 6
- chemSmiles: "C=C(C)[C@@H]1CC[C@]2(C)CC[C@]3(C)[C@H](CC[C@@H]4[C@@]5(C)CC[C@H](OC(=O)Cc6ccc(OC)cc6)C(C)(C)[C@@H]5CC[C@]43C)[C@@H]12"
  recordedResult: 4
- chemSmiles: "C=C(C)[C@@H]1CC[C@]2(C)CC[C@]3(C)[C@H](CC[C@@H]4[C@@]5(C)CC[C@H](OC(=O)c6ccc(Cl)cc6)C(C)(C)[C@@H]5CC[C@]43C)[C@@H]12"
  recordedResult: 5
- chemSmiles: "C=C(C)[C@@H]1CC[C@]2(C)CC[C@]3(C)[C@H](CC[C@@H]4[C@@]5(C)CC[C@H](OC(=O)c6cccnc6)C(C)(C)[C@@H]5CC[C@]43C)[C@@H]12"
  recordedResult: 2

====

test system: Rattus norvegicus; experiment: Antihyperglycemic activity in sucrose challenged albino Sprague-Dawley rat STZ-S model assessed as decrease in blood glucose level at 100 mg/kg, po preincubated 30 min before sucrose challenge measured 24 hrs after last dose; format: functional; design: scale not given: the % may be the effect or the level left
Activity listing for selected compounds.
recordedMetric: Activity (%)

- chemSmiles: "C=C(C)[C@@H]1CC[C@]2(C)CC[C@]3(C)[C@H](CC[C@@H]4[C@@]5(C)CC[C@H](OC(=O)Cc6ccccn6)C(C)(C)[C@@H]5CC[C@]43C)[C@@H]12"
  recordedMetric: "Activity"
  unitTag: "%"
  recordedResult: -18.2
- chemSmiles: "C=C(C)[C@@H]1CC[C@]2(C)CC[C@]3(C)[C@H](CC[C@@H]4[C@@]5(C)CC[C@H](OC(=O)/C=C/c6cccs6)C(C)(C)[C@@H]5CC[C@]43C)[C@@H]12"
  recordedMetric: "Activity"
  unitTag: "%"
  recordedResult: -14.9
- chemSmiles: "C=C(C)[C@@H]1CC[C@]2(C)CC[C@]3(C)[C@H](CC[C@@H]4[C@@]5(C)CC[C@H](OC(=O)c6cccnc6)C(C)(C)[C@@H]5CC[C@]43C)[C@@H]12"
  recordedMetric: "Activity"
  unitTag: "%"
  recordedResult: -25
- chemSmiles: "C=C(C)[C@@H]1CC[C@]2(C)CC[C@]3(C)[C@H](CC[C@@H]4[C@@]5(C)CC[C@H](OC(=O)c6ccc(Cl)cc6)C(C)(C)[C@@H]5CC[C@]43C)[C@@H]12"
  recordedMetric: "Activity"
  unitTag: "%"
  recordedResult: -19.6
- chemSmiles: "C=C(C)[C@@H]1CC[C@]2(C)CC[C@]3(C)[C@H](CC[C@@H]4[C@@]5(C)CC[C@H](OC(=O)/C=C/c6cccnc6)C(C)(C)[C@@H]5CC[C@]43C)[C@@H]12"
  recordedMetric: "Activity"
  unitTag: "%"
  recordedResult: -15.7
- chemSmiles: "C=C(C)[C@@H]1CC[C@]2(C)CC[C@]3(C)[C@H](CC[C@@H]4[C@@]5(C)CC[C@H](OC(=O)/C=C/c6ccsc6)C(C)(C)[C@@H]5CC[C@]43C)[C@@H]12"
  recordedMetric: "Activity"
  unitTag: "%"
  recordedResult: -21.5
- chemSmiles: "C=C(C)[C@@H]1CC[C@]2(C)CC[C@]3(C)[C@H](CC[C@@H]4[C@@]5(C)CC[C@H](OC(=O)CNC(=O)c6ccccc6)C(C)(C)[C@@H]5CC[C@]43C)[C@@H]12"
  recordedMetric: "Activity"
  unitTag: "%"
  recordedResult: -23.6
- chemSmiles: "CN(C)C(=N)NC(=N)N"
  recordedMetric: "Activity"
  unitTag: "%"
  recordedResult: -26.5
- chemSmiles: "C=C(C)[C@@H]1CC[C@]2(C)CC[C@]3(C)[C@H](CC[C@@H]4[C@@]5(C)CC[C@H](OC(=O)/C=C/c6ccco6)C(C)(C)[C@@H]5CC[C@]43C)[C@@H]12"
  recordedMetric: "Activity"
  unitTag: "%"
  recordedResult: -18.5
- chemSmiles: "C=C(C)[C@@H]1CC[C@]2(C)CC[C@]3(C)[C@H](CC[C@@H]4[C@@]5(C)CC[C@H](OC(=O)c6ccc([N+](=O)[O-])cc6)C(C)(C)[C@@H]5CC[C@]43C)[C@@H]12"
  recordedMetric: "Activity"
  unitTag: "%"
  recordedResult: -21.1
- chemSmiles: "C=C(C)[C@@H]1CC[C@]2(C)CC[C@]3(C)[C@H](CC[C@@H]4[C@@]5(C)CC[C@H](OC(=O)CCc6cccnc6)C(C)(C)[C@@H]5CC[C@]43C)[C@@H]12"
  recordedMetric: "Activity"
  unitTag: "%"
  recordedResult: -10.4

====

tested on: Syrian golden hamster; test: Antidyslipidemic activity in high fat diet fed dyslipidemic golden Syrian hamster model assessed as change in plasma glycerol level at 50 mg/kg, po administered once daily from day 4 to day 10 measured on day 10 after 2 hrs of last dose relative to baseline; format: functional, Mesocricetus auratus
Activity listing for selected compounds.
recordedMetric: Activity

- chemSmiles: "C=C(C)[C@@H]1CC[C@]2(C)CC[C@]3(C)[C@H](CC[C@@H]4[C@@]5(C)CC[C@H](OC(=O)Cc6ccc(OC)cc6)C(C)(C)[C@@H]5CC[C@]43C)[C@@H]12"
  recordedResult: "-8%"
- chemSmiles: "C=C(C)[C@@H]1CC[C@]2(C)CC[C@]3(C)[C@H](CC[C@@H]4[C@@]5(C)CC[C@H](OC(=O)c6ccc([N+](=O)[O-])cc6)C(C)(C)[C@@H]5CC[C@]43C)[C@@H]12"
  recordedResult: "-21%"
- chemSmiles: "C=C(C)[C@@H]1CC[C@]2(C)CC[C@]3(C)[C@H](CC[C@@H]4[C@@]5(C)CC[C@H](OC(=O)c6ccc7ccccc7n6)C(C)(C)[C@@H]5CC[C@]43C)[C@@H]12"
  recordedResult: "-20%"
- chemSmiles: "C=C(C)[C@@H]1CC[C@]2(C)CC[C@]3(C)[C@H](CC[C@@H]4[C@@]5(C)CC[C@H](OC(=O)c6cccnc6)C(C)(C)[C@@H]5CC[C@]43C)[C@@H]12"
  recordedResult: "-30%"
- chemSmiles: "C=C(C)[C@@H]1CC[C@]2(C)CC[C@]3(C)[C@H](CC[C@@H]4[C@@]5(C)CC[C@H](OC(=O)c6ccc(Cl)cc6)C(C)(C)[C@@H]5CC[C@]43C)[C@@H]12"
  recordedResult: "-14%"
